# STUDY TARGET: Retinoic acid receptor gamma (Homo sapiens)
# Sequence (P13631 whole entry): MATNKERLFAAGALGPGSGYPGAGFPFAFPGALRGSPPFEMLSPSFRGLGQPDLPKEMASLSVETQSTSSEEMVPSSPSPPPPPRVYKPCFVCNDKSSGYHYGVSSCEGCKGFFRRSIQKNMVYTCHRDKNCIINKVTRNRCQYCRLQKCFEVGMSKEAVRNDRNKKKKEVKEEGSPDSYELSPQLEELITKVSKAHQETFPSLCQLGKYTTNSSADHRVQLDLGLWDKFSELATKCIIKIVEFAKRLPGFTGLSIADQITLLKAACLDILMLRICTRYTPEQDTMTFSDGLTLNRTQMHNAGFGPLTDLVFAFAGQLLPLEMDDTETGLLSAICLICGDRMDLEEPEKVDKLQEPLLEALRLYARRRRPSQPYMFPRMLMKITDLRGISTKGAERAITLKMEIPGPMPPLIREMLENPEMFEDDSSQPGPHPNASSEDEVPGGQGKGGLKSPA
# MEASUREMENT PROTOCOL: Antagonistic activity towards retinoic acid receptor-gamma
READOUT NAME: pKi
Answers are plain numbers, as −log10 of the molar value.

stdin: What value of pKi has been recorded for this entry: CN1c2cc3c(cc2N=C(c2ccc(C(=O)O)cc2)c2ccc4ccccc4c21)C(C)(C)CCC3(C)C
stdout: 6.31

###

Kindly supply the reported Ki values for the records listed here.
# STUDY TARGET: Retinoic acid receptor beta (Homo sapiens, UniProt P10826)
# Sequence (P10826 whole entry): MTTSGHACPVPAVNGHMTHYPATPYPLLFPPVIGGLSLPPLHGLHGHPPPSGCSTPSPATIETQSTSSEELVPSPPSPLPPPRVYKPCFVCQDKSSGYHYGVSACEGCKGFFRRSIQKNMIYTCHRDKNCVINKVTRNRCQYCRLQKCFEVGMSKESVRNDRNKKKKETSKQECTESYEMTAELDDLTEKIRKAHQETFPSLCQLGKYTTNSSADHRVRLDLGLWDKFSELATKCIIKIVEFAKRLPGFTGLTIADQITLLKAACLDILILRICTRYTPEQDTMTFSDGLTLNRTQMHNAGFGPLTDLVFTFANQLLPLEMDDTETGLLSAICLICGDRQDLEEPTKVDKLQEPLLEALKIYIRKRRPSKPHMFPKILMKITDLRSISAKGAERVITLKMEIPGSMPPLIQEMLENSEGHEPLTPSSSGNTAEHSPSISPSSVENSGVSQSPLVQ
# MEASUREMENT PROTOCOL: Synergistic activity towards retinoic acid receptor-beta
Answers are plain numbers, in µM.

Below: 3 compounds and their reported Ki.
CHEM SMILES	Ki / µM
CN1c2ccccc2N=C(c2ccc(C(=O)O)cc2)c2cc3c(cc21)C(C)(C)CCC3(C)C	0.68
CC1(C)CCC(C)(C)c2cc3c(cc21)Sc1ccccc1N=C3c1ccc(C(=O)O)cc1	0.32
CC1(C)CCC(C)(C)c2cc3c(cc21)Cc1ccccc1N=C3c1ccc(C(=O)O)cc1	0.81

Now let's try a different one.
stdin: GET /values?readout=Ki&system=Retinoic acid receptor beta (Homo sapiens, UniProt P10826)&item= CC1(C)CCC(C)(C)c2cc3c(cc21)Oc1ccccc1N=C3c1ccc(C(=O)O)cc1
stdout: 0.32

Each recorded value in this set is attributed to ChEMBL document CHEMBL1130267.
